# method notes: Biodistribution in Jurkat tumor-bearing CB-17 SCID mice
# Assay type: in vivo
# measurement parameters: female, CB-17 SCID, mouse, in vivo, iv, total radioactivity, % iD/g Blood
Non-standard residues stand in square brackets, D forms with d. Residues, ends and D or L forms follow the SMILES beside them. Groups on a side chain read outwards from the residue. *: point of attachment. DOTA = O=C(O)CN1CCN(CC(=O)O)CCN(CC(=O)*)CCN(CC(=O)O)CC1; dTyr(3-I) = N[C@H](Cc1ccc(O)c(I)c1)C(=O)O; 2Nal = N[C@@H](Cc1ccc2ccccc2c1)C(=O)O; dNMeOrn = CN[C@H](CCCN)C(=O)O; 4Amb = NCc1ccc(C(=O)O)cc1; 4Abz = Nc1ccc(C(=O)O)cc1; dDap = NC[C@@H](N)C(=O)O
parameter: tissue uptake at 1 h (%ID/g)
Quick reminder: number only, in %ID/g, skip the unit.

molecule	measurement unit	measured number
C[C@@H](NC(=O)[C@@H](CCCNC(=N)N)NC(=O)[C@@H](CN)NC(=O)CN1CCN(CC(=O)O)CCN(CC(=O)O)CCN(CC(=O)O)CC1)C(=O)NCc1ccc(C(=O)NCCC[C@@H]2C(=O)N[C@@H](CCCNC(=N)N)C(=O)N[C@@H](Cc3ccc4ccccc4c3)C(=O)NCC(=O)N[C@H](Cc3ccc(O)cc3)C(=O)N2C)cc1 [CXCR4-DOTA-1 [Lu]] (cyclo([dY][dNMeOrn]([4Amb-dA-dR-dDap-DOTA])R[2Nal]G))	%ID/g	1.24
C[C@@H](NC(=O)[C@@H](CCCNC(=N)N)NC(=O)[C@@H](CN)NC(=O)CN1CCN(CC(=O)O)CCN(CC(=O)O)CCN(CC(=O)O)CC1)C(=O)Nc1ccc(C(=O)NCCC[C@@H]2C(=O)N[C@@H](CCCNC(=N)N)C(=O)N[C@@H](Cc3ccc4ccccc4c3)C(=O)NCC(=O)N[C@H](Cc3ccc(O)c(I)c3)C(=O)N2C)cc1 [CXCR4-DOTA-4 [Lu]] (cyclo([dTyr(3-I)][dNMeOrn]([4Abz-dA-dR-dDap-DOTA])R[2Nal]G))	%ID/g	1.72
C[C@@H](NC(=O)[C@@H](CCCNC(=N)N)NC(=O)[C@@H](CN)NC(=O)CCCCCNC(=O)[C@@H](CNC(=O)CN1CCN(CC(=O)O)CCN(CC(=O)O)CCN(CC(=O)O)CC1)NC(=O)CCCCC[N+]1=C(/C=C/C=C/C=C2/N(C)c3ccc(S(=O)(=O)O)cc3C2(C)C)C(C)(C)c2cc(S(=O)(=O)[O-])ccc21)C(=O)Nc1ccc(C(=O)NCCC[C@@H]2C(=O)N[C@@H](CCCNC(=N)N)C(=O)N[C@@H](Cc3ccc4ccccc4c3)C(=O)NCC(=O)N[C@H](Cc3ccc(O)cc3)C(=O)N2C)cc1 [[^natLu]CXCR4-OI-3, metal not drawn]	%ID/g	1.9
C[C@@H](NC(=O)[C@@H](CCCNC(=N)N)NC(=O)[C@@H](CN)NC(=O)CN1CCN(CC(=O)O)CCN(CC(=O)O)CCN(CC(=O)O)CC1)C(=O)NCc1ccc(C(=O)NCCC[C@@H]2C(=O)N[C@@H](CCCNC(=N)N)C(=O)N[C@@H](Cc3ccc4ccccc4c3)C(=O)NCC(=O)N[C@H](Cc3ccc(O)c(I)c3)C(=O)N2C)cc1 [CXCR4-DOTA-2 [Lu]] (cyclo([dTyr(3-I)][dNMeOrn]([4Amb-dA-dR-dDap-DOTA])R[2Nal]G))	%ID/g	1.67
C[C@@H](NC(=O)[C@@H](CCCNC(=N)N)NC(=O)[C@@H](CN)NC(=O)CN1CCN(CC(=O)O)CCN(CC(=O)O)CCN(CC(=O)O)CC1)C(=O)Nc1ccc(C(=O)NCCC[C@@H]2C(=O)N[C@@H](CCCNC(=N)N)C(=O)N[C@@H](Cc3ccc4ccccc4c3)C(=O)NCC(=O)N[C@H](Cc3ccc(O)cc3)C(=O)N2C)cc1 [CXCR4-DOTA-3 [Lu]] (cyclo([dY][dNMeOrn]([4Abz-dA-dR-dDap-DOTA])R[2Nal]G))	%ID/g	0.91

--- query ---
Name the recorded tissue uptake at 1 h for CN1C(=O)[C@@H](Cc2ccc(O)cc2)NC(=O)CNC(=O)[C@H](Cc2ccc3ccccc3c2)NC(=O)[C@H](CCCNC(=N)N)NC(=O)[C@H]1CCCNC(=O)c1ccc(CNC(=O)CN2CCN(CC(=O)O)CCN(CC(=O)O)CCN(CC(=O)O)CC2)cc1 [^68Ga-Pentixafor, metal not drawn, reference compound] (cyclo([dY][dNMeOrn]([4Amb-DOTA])R[2Nal]G)) .
1.29
